Target: PDK1 (Homo sapiens (Human))
Sequence (O15530 51-359): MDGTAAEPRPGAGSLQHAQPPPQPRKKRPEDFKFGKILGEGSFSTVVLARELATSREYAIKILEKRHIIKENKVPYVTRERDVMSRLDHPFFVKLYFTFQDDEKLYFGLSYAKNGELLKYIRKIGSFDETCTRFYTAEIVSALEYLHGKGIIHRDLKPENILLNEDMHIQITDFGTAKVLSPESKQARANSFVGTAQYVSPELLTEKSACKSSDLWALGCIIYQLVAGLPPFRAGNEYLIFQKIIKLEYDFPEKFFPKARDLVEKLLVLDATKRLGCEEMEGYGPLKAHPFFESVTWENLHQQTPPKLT
Assay: PDK1 kinase assay (coupled PDK1/AKT/FAM-crosstide assay, IMAP fluorescence polarization)
Type: biochemical
Details: inhibition of phospo-PDK1 in vitro
pIC50: −log10 of the molar value. Structures can show the parent of a compound that is named as a salt.
Here the recorded pIC50 is given for each entry.

{"molecule": "C[C@H](NC(=O)c1cccnc1NCc1ccc(-c2ccc3nccnc3c2)s1)c1ccc(F)c(F)c1 [Example 4.31]", "pIC50": "< 5.30"}
{"molecule": "C[C@H](NC(=O)c1cccnc1NCc1ccc(-c2cn(C)c(=O)c3ccccc23)s1)c1ccc(F)cc1 [Example 2.10]", "pIC50": "< 5.30"}
{"molecule": "C[C@H](NC(=O)c1cc(C(F)(F)F)cnc1NCc1ccc(-c2cc3c(N)ncnc3cn2)s1)c1ccc(F)c(F)c1 [Example 8.12.8]", "pIC50": "6.00 to 7.00"}
{"molecule": "CNC(=O)c1cc(S(=O)(=O)N2CCN(C)CC2)cnc1NCc1ccc(-c2ccc3ncnc(N)c3c2)s1 [Example 8.6.12]", "pIC50": "< 5.30"}
{"molecule": "Nc1ncnc2ccc(-c3ccc(CNc4ncccc4C(=O)NCc4ccc(F)cc4F)s3)cc12 [Example 3.8, (TFA salt)]", "pIC50": "> 7.00"}
{"molecule": "C[C@H](NC(=O)c1cccnc1NCc1ccc(-c2ccc3ncc4[nH]c(=O)n(C)c4c3c2)s1)c1ccc(F)cc1 [Example 2.16]", "pIC50": "< 5.30"}

----------
Tested on: phospho-akt (Thr308) in PC-3 cells
Experiment: Inhibition of phospho-akt (Thr308) in PC-3 cells, MSD phospho-akt 308 ELISA kit
Assay type: cell-based
Conditions: Homo sapiens; inhibition of P308 Akt in PC-3 cells using MSD, 2 hours, no serum; read-out: EC50
pEC50: −log10 of the molar value.
value kind: pEC50

{"compound": "O=C(NCc1ccc(F)c(F)c1)c1cc(C(F)(F)F)cnc1NCc1ccc(-c2cnc(NCCO)cn2)cc1 [Example 229]", "measurement": "5.00 to 6.00"}
{"compound": "Nc1n[nH]c2ncc(-c3ccc(CNc4ncc(C(F)(F)F)cc4C(=O)NCc4ccc(Cl)c(F)c4)cc3)cc12 [Example 419]", "measurement": "5.00 to 6.00"}
{"compound": "Nc1n[nH]c2ncc(-c3ccc(CNc4ncc(C(F)(F)F)cc4C(=O)Nc4c(F)cc(F)cc4F)cc3)cc12 [Example 278]", "measurement": "> 6.00"}
{"compound": "C[C@H](NC(=O)c1nc(C#N)cnc1N[C@H](C)c1ccc(-c2cnc3[nH]nc(N)c3c2)nc1)c1ccc(F)c(F)c1 [Example 415]", "measurement": "> 6.00"}
{"compound": "C[C@H](NC(=O)c1cc(C#N)cnc1NCc1ccc(-c2cnc3[nH]nc(C#CCN(C)C)c3c2)cc1)c1ccc(F)cc1 [Example 146]", "measurement": "> 6.00"}
{"compound": "Nc1n[nH]c2ncc(-c3ccc(CNc4ncc(C(F)(F)F)cc4C(=O)NC4CCCC4)cc3)cc12 [Example 302]", "measurement": "5.00 to 6.00"}

----------
Biological target: PDK1 (Homo sapiens (Human))
Assay: PDK1 kinase assay (coupled PDK1/AKT/FAM-crosstide assay, IMAP fluorescence polarization)
Type: biochemical
Conditions: inhibition of PDK1 in vitro

{"molecule": "C[C@@H](Nc1ncc(C(F)(F)F)cc1C(=O)Nc1ccc(F)cc1)c1ccc(-c2cn(C)c3ncnc(N)c23)cc1 [Example 403]", "IC50": "< 100 nM"}
{"molecule": "Nc1cnc(-c2ccc(CNc3ncc(C(F)(F)F)cc3C(=O)NCc3ccc(F)cc3)cc2)cn1 [Example 383]", "IC50": "< 100 nM"}
{"molecule": "Nc1n[nH]c2ncc(-c3ccc(CNc4ncc(C(F)(F)F)cc4C(=O)N[C@H](CO)c4ccc(Br)cc4)cc3)cc12 [Example 437]", "IC50": "1000 to 5000 nM"}
{"molecule": "C[C@H](NC(=O)c1cc(C#N)cnc1NCc1ccc(-c2cnc(N)c(C(=O)NCCCS(C)(=O)=O)n2)cc1)c1ccc(F)cc1 [Example 208]", "IC50": "< 100 nM"}
{"molecule": "C[C@H](NC(=O)c1cc(C#N)cnc1NCc1ccc(-c2cnc3[nH]nc(CCCN)c3c2)cc1)c1ccc(F)cc1 [Example 150]", "IC50": "< 100 nM"}
{"molecule": "COCCn1cc(-c2ccc(CNc3ncc(C(F)(F)F)cc3C(=O)Nc3ccc(F)cc3)cc2)c2c(N)ncnc21 [Example 431]", "IC50": "< 100 nM"}
{"molecule": "Nc1n[nH]c2ncc(-c3ccc(CNc4ncc(C(F)(F)F)cc4C(=O)Nc4ccc(F)cc4F)cc3)cc12 [Example 291]", "IC50": "< 100 nM"}
{"molecule": "CN1CCN(Cc2cccc(NC(=O)c3cc(C(F)(F)F)cnc3NCc3ccc(-c4cnc5[nH]nc(N)c5c4)cc3)c2)CC1 [Example 440]", "IC50": "100 to 1000 nM"}
{"molecule": "C[C@H](NC(=O)c1nc(C#N)cnc1NCc1ccc(-c2cnc(N)cn2)cc1)c1ccc(F)c(F)c1 [Example 376]", "IC50": "< 100 nM"}
{"molecule": "C[C@H](NC(=O)c1cc(C#N)cnc1Nc1ccc(-c2cnc3[nH]nc(N)c3c2)cc1)c1ccc(F)cc1 [Example 424]", "IC50": "< 100 nM"}
{"molecule": "C[C@H](NC(=O)c1cc(C#N)cnc1NCc1ccc(-c2n[nH]c3ncnc(N)c23)cc1)c1ccc(F)cc1 [Example 96]", "IC50": "< 100 nM"}
{"molecule": "CNc1ncc2cc(C#CCNc3ncc(C(F)(F)F)cc3C(=O)NCc3ccc(F)c(F)c3)ccc2n1 [Example 256]", "IC50": "< 100 nM"}
{"molecule": "C[C@@H](Nc1ncc(C(F)(F)F)cc1C(=O)Nc1ccc(F)cc1)c1ccc(-c2c[nH]c3ncnc(N)c23)cc1 [Example 433]", "IC50": "< 100 nM"}
{"molecule": "C[C@H](NC(=O)c1nc(C#N)cnc1NCc1ccc(-c2cnc3[nH]ncc3c2)cc1)c1ccc(F)cc1 [Example 389]", "IC50": "< 100 nM"}
{"molecule": "Nc1n[nH]c2ncc(-c3ccc(CNc4ncc(C(F)(F)F)cc4C(=O)NC4CCOC4)cc3)cc12 (stereo not drawn) [Example 305]", "IC50": "100 to 1000 nM"}
